For each record, write down the corresponding pKi.
target: human SERT wild type (Homo sapiens (Human), UniProt P31645); type: cell-based; conditions: read-out: hSERT WT Ki [S.E. interval]
Answers are plain numbers, as −log10 of the molar value.

Some compounds with known pKi results, for comparison:
NCCSC(c1ccccc1)c1ccccc1 [Compound 4a, 2-(benzhydrylthio)ethan-1-amine] : 6.16
CNC(=O)CSC(c1ccc(Cl)cc1)c1ccc(Cl)cc1 : 5.08

I looked up NCCSC(c1ccc(Cl)cc1)c1ccc(Cl)cc1 and its pKi for human SERT wild type (Homo sapiens (Human), UniProt P31645) was 6.57

---

Target: NET (Rattus norvegicus (Rat))
Assay: Norepinephrine Transporter Binding Assay ([3H]Nisoxetine, rat frontal cortex membranes)
Description: Binding affinities of all compounds were evaluated at the DAT, SERT, and NET in rat brain membranes using previously described methods: Norepinephrine Transporter Binding Assay. […] Nonspecific binding was determined using 1 mM desipramine. […] Beckman Ready Value (3.0 mL) was added and the vials were counted using a Beckman 6000 liquid scintillation counter (Beckman Coulter Instruments, Fullerton, Calif.). […]
Please go through the items and note down their Ki.

[O-][S+](CCNCCCc1ccccc1)C(c1ccc(F)cc1)c1ccc(F)cc1 (centres unmarked) : 3.28 µM
NC(=O)CSC(c1ccccc1)c1ccccc1 [Compound 2a, 2-(Benzhydrylthio)acetamide] : > 100 µM
OC(Cc1ccccc1)CN1CCN(CCSC(c2ccccc2)c2ccccc2)CC1 (racemic) : 1.43 µM
NC(=O)C[S+]([O-])C(c1cccc(F)c1)c1cccc(F)c1 (centres unmarked) : > 100 µM
CNC(=O)C[S+]([O-])C(c1ccccc1)c1ccccc1 (centres unmarked) [Compound 3f, 2-(Benzhydrylsulfinyl)-N-methylacetamide] : > 100 µM
CCCCNCC[S+]([O-])C(c1ccccc1)c1ccccc1 (centres unmarked) : > 140 µM
[O-][S+](CCNCCCc1ccccc1)C(c1ccc(Br)cc1)c1ccc(Br)cc1 (centres unmarked) : 7.58 µM

Here's the next entry for you.
// O=C(C[S+]([O-])C(c1ccc(Br)cc1)c1ccc(Br)cc1)NCCCc1ccccc1 (centres unmarked) : Ki value = > 100 µM

---

molecular target: NET (Rattus norvegicus (Rat)); test: Norepinephrine Transporter Binding Assay ([3H]Nisoxetine, rat frontal cortex membranes)
pKi: −log10 of the molar value.
Please enter yes where pKi is greater than or equal to 5, and no where it is lower.

IN: Could you verify whether the entry CNC(=O)CSC(c1ccccc1)c1ccccc1 [Compound 2g, 2-(Benzhydrylthio)-N-methylacetamide] shows pKi of no less than 5?
OUT: no

IN: Is the recorded value of pKi equal to or greater than 5 for this compound? [O-][S+](CCN1CCN(CCCc2ccccc2)CC1)C(c1ccc(F)cc1)c1ccc(F)cc1 (centres unmarked)
OUT: yes

IN: Item [O-][S+](CCN1CCN(CCCc2ccccc2)CC1)C(c1ccccc1)c1ccccc1 (centres unmarked) with pKi of 5 or above?
OUT: yes

IN: Please indicate if the recorded pKi for NCCSC(c1ccccc1)c1ccccc1 [Compound 4a, 2-(benzhydrylthio)ethan-1-amine] meets or exceeds 5.
OUT: yes

IN: Is pKi for O=C(CSC(c1ccc(F)cc1)c1ccc(F)cc1)NCC1CC1 at or above 5?
OUT: no

IN: Tell me whether pKi is at least 5 here: CC(O)CN1CCN(CC[S+]([O-])C(c2ccccc2)c2ccccc2)CC1 (racemic) [Compound 10a]
OUT: no

---

molecular target: NET (Rattus norvegicus (Rat), UniProt Q9WTR4); experiment: Norepinephrine Transporter Binding Assay ([3H]Nisoxetine, rat frontal cortex membranes)
Sequence (Q9WTR4 entry or part of it): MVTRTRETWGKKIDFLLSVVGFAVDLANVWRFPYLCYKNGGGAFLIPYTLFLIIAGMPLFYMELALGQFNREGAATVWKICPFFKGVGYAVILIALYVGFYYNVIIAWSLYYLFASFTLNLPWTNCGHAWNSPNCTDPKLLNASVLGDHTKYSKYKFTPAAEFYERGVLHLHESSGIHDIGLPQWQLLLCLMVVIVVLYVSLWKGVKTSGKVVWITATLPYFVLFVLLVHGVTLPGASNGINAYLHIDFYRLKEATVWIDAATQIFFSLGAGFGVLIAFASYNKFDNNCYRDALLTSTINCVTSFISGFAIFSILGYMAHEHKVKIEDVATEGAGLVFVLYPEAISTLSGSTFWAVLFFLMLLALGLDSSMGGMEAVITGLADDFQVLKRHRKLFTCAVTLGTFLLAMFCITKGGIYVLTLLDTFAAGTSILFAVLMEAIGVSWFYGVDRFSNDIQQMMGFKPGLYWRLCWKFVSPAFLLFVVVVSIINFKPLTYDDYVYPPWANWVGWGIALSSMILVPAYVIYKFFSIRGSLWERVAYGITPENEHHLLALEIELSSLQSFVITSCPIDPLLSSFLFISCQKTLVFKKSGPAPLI
PARAMETER_MEASURED: Ki

Example compounds with recorded Ki:
CC(O)CN1CCN(CC[S+]([O-])C(c2ccc(F)cc2)c2ccc(F)cc2)CC1 (racemic) [Compound 10d] : > 100 µM
CCCCNCCSC(c1ccccc1)c1ccccc1 [Compound 4e, N-(2-(benzhydrylthio)ethyl)butan-1-amine] : 11.5 µM
CCCNC(=O)CSC(c1ccccc1)c1ccccc1 [Compound 2k, 2-(Benzhydrylthio)-N-propylacetamide] : 55.9 µM

Now take the following compound into account.
GET /values?item= [O-][S+](CCN1CCN(CC(O)Cc2ccccc2)CC1)C(c1ccccc1)c1ccccc1 (racemic) [Compound 10g] &system= NET (Rattus norvegicus (Rat), UniProt Q9WTR4) returns Ki: 25.3 µM

---

target: UniProt Q01959; assay: [3H]DA uptake inhibition in intact COS7 cells, hDAT WT; settings: [3H]DA uptake inhibition potency, read-out: hDAT WT Ki [S.E. interval]
PARAMETER_MEASURED: Ki (nM)
Numbers only, in nM.

Worked cases, Ki given:
NCCSC(c1ccc(Cl)cc1)c1ccc(Cl)cc1 : 1210
NCCSC(c1ccccc1)c1ccccc1 [Compound 4a, 2-(benzhydrylthio)ethan-1-amine] : 390
CNC(=O)CSC(c1ccccc1)c1ccccc1 [Compound 2g, 2-(Benzhydrylthio)-N-methylacetamide] : 5500

Now for another entry.
Tested system UniProt Q01959; Ki recorded for CNC(=O)CSC(c1ccc(Cl)cc1)c1ccc(Cl)cc1 was 3700

---

Record form. Attribute: pKi. Fill in for each entry.
target: NET (Rattus norvegicus (Rat)); assay: Norepinephrine Transporter Binding Assay ([3H]Nisoxetine, rat frontal cortex membranes)
One number for each entry, as −log10 of the molar value.

Please review the following examples before continuing.
O=C(CSC(c1ccc(Br)cc1)c1ccc(Br)cc1)NCCCc1ccccc1 : 4.44
NC(=O)CSC(c1cccc(Cl)c1)c1cccc(Cl)c1 : 4.47
CC(O)CN1CCN(CCSC(c2ccccc2)c2ccccc2)CC1 (racemic) : 4.35
c1ccc(CCCNCCSC(c2ccccc2)c2ccccc2)cc1 : 5.41
CCCNC(=O)CSC(c1ccc(F)cc1)c1ccc(F)cc1 : 4.21
Fc1ccc(C(SCCNCCCc2ccccc2)c2ccc(F)cc2)cc1 : 5.41

Batch of 2 compounds: report pKi for each.
1. [O-][S+](CCNCCCc1ccccc1)C(c1ccc(Cl)cc1)c1ccc(Cl)cc1 (stereo not drawn)
2. OC(Cc1ccccc1)CN1CCN(CCSC(c2ccc(F)cc2)c2ccc(F)cc2)CC1 (racemic)

OUT:
5.24
5.71

Reported pKi of Fc1ccc(C(SCCN2CCN(CCCc3ccccc3)CC2)c2ccc(F)cc2)cc1 : 5.72

---

biological target: human DAT A480T mutant (Homo sapiens (Human), UniProt Q01959, A480T); test: [3H]DA uptake inhibition in intact COS7 cells, hDAT A480T; conditions: read-out: hDAT A480T Ki [S.E. interval], [3H]DA uptake inhibition potency
Sequence (Q01959 whole entry A480T): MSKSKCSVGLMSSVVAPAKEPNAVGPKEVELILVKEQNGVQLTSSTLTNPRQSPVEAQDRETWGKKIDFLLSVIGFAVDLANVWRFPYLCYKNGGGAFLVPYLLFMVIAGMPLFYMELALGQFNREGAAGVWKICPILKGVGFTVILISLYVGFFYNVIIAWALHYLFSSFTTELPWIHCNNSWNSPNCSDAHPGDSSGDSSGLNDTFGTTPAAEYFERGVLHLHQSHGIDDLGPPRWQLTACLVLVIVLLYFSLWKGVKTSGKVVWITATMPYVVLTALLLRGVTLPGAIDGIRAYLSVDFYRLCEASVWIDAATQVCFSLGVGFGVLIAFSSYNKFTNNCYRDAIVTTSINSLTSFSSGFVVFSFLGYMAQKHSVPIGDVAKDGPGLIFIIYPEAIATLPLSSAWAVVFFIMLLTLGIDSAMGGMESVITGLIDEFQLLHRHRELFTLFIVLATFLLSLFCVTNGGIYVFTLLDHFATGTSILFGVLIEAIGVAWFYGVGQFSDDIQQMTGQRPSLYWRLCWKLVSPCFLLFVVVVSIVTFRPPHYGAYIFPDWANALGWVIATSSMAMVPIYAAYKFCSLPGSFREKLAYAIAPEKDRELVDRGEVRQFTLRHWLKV
PARAMETER_MEASURED: Ki (nM)
Answers are plain numbers, in nM.

NCCSC(c1ccc(Cl)cc1)c1ccc(Cl)cc1 : 1370
NCCSC(c1ccccc1)c1ccccc1 [Compound 4a, 2-(benzhydrylthio)ethan-1-amine] : 720
CNC(=O)CSC(c1ccccc1)c1ccccc1 [Compound 2g, 2-(Benzhydrylthio)-N-methylacetamide] : 3600

Kindly consider the entry below.
So for CNC(=O)CSC(c1ccc(Cl)cc1)c1ccc(Cl)cc1 , the logged Ki turned out to be 2300

---

biological target: NET (Rattus norvegicus (Rat)); test: Norepinephrine Transporter Binding Assay ([3H]Nisoxetine, rat frontal cortex membranes)
Would you mind telling me the reported Ki of each entry?

O=C(CSC(c1ccc(Br)cc1)c1ccc(Br)cc1)NCCCCc1ccccc1 : > 100 µM
NC(=O)C[S+]([O-])C(c1ccccc1)c1cccc(Br)c1 (stereo not drawn) : > 100 µM
CCCCNC(=O)CSC(c1ccccc1)c1ccccc1 [Compound 2r, 2-(Benzhydrylthio)-N-butylacetamide] : > 0.1 µM
Cc1ccc(C(c2ccc(C)cc2)[S+]([O-])CC(N)=O)cc1 (stereo not drawn) [Compound 3a, 2-((Di-p-tolylmethyl)sulfinyl)acetamide] : > 100 µM
O=C(CSC(c1ccccc1)c1ccccc1)NCC1CC1 : > 100 µM

# per-item lookup of Ki; items listed below
1. NC(=O)C[S+]([O-])C(c1cccc(Cl)c1)c1cccc(Cl)c1 (stereo not drawn)
2. O=C(CSC(c1ccc(F)cc1)c1ccc(F)cc1)NCCCc1ccccc1
3. C=CCNC(=O)CSC(c1ccccc1)c1ccccc1 [Compound 2j, N-Allyl-2-(benzhydrylthio)acetamide]

OUT:
> 100 µM
> 100 µM
> 230 µM

Lab note: compound O=C(CSC(c1ccc(Br)cc1)c1ccc(Br)cc1)NCC1CC1 tested on NET (Rattus norvegicus (Rat)); recorded Ki was > 100 µM
